# System: Bacillus pumilus
# experimental protocol: Anti-microbial activity against Bacillus pumilus CMCC63202 incubated for 20 hrs By CLSI based micro-dilution method
# Format: functional
Measured MIC of individual entries

molecule: CC[C@H]1OC(=O)[C@H](C)[C@@H](O[C@H]2C[C@@](C)(OC)[C@@H](O)[C@H](C)O2)[C@H](C)[C@@H](O[C@@H]2O[C@H](C)C[C@H](N(C)C)[C@H]2O)[C@](C)(O)C[C@@H](C)CN(C)[C@H](C)[C@@H](O)[C@]1(C)O [AZITHROMYCIN]
prefix operator: =
MIC [µg/mL]: 0.25

molecule: Cn1/c(=N/NC(=O)c2ccc(F)cc2)sc2ccccc21
prefix operator: >
MIC [µg/mL]: 512

molecule: Cn1/c(=N/NC(=O)c2cccc(Cl)c2)sc2ccccc21
prefix operator: >
MIC [µg/mL]: 512

molecule: Clc1cccc(/C=N/Nc2nc3ccccc3o2)c1
prefix operator: =
MIC [µg/mL]: 512

molecule: CC[C@H]1OC(=O)[C@H](C)[C@@H](O[C@H]2C[C@@](C)(OC)[C@@H](O)[C@H](C)O2)[C@H](C)[C@@H](O[C@@H]2O[C@H](C)C[C@H](N(C)C)[C@H]2O)[C@](C)(OC)C[C@@H](C)C(=O)[C@H](C)[C@@H](O)[C@]1(C)O [CLARITHROMYCIN]
prefix operator: =
MIC [µg/mL]: 0.25

molecule: O=C(CCCCOc1ccc(F)cc1)NNc1nc2ccc(Cl)cc2o1
prefix operator: =
MIC [µg/mL]: 256

molecule: CCCCCCCCCCC(=O)N/N=c1\sc2ccccc2n1C
prefix operator: >
MIC [µg/mL]: 512

molecule: Cn1c(=NNC(=O)CCCCOc2ccc(Cl)cc2)sc2ccccc21
prefix operator: =
MIC [µg/mL]: 256

molecule: Cc1ccc(C(=O)NNc2nc3ccccc3s2)cc1
prefix operator: =
MIC [µg/mL]: 256

molecule: O=C(COc1ccc(F)cc1)NNc1nc2ccccc2o1
prefix operator: >
MIC [µg/mL]: 512

molecule: CCCCCCC(=O)N/N=c1\sc2ccccc2n1C
prefix operator: >
MIC [µg/mL]: 512

molecule: O=C(CCCCOc1ccc(F)cc1)NNc1nc2ccccc2s1
prefix operator: >
MIC [µg/mL]: 512

molecule: O=C(CCCOc1ccc(C(F)(F)F)cc1)NNc1nc2ccccc2o1
prefix operator: >
MIC [µg/mL]: 512

molecule: O=C(CCCOc1ccc(F)cc1)NNc1nc2ccccc2o1
prefix operator: =
MIC [µg/mL]: 256

molecule: O=C(NNc1nc2ccccc2s1)c1ccc(F)cc1
prefix operator: >
MIC [µg/mL]: 512

molecule: CC(C)c1ccc(/C=N/Nc2nc3ccccc3o2)cc1
prefix operator: =
MIC [µg/mL]: 512

molecule: Cc1cccc2sc(NNC(=O)CCCCOc3ccc(F)cc3)nc12
prefix operator: =
MIC [µg/mL]: 512

molecule: Cc1cccc(C(=O)NNc2nc3ccccc3s2)c1
prefix operator: =
MIC [µg/mL]: 512

molecule: COc1ccccc1C(=O)N/N=c1\sc2ccccc2n1C
prefix operator: >
MIC [µg/mL]: 512

molecule: COc1ccccc1/C=N/Nc1nc2ccccc2o1
prefix operator: >
MIC [µg/mL]: 512

----------
# System: Pseudomonas aeruginosa
# experimental protocol: Anti-microbial activity against Pseudomonas aeruginosa PAO1 incubated for 20 hrs By CLSI based micro-dilution method
# Type: functional
experimental endpoint: MIC

substance smiles: O=C(CCCCOc1ccc(F)cc1)NNc1nc2ccc(Cl)cc2o1
experimental endpoint: MIC
test value: > 512 µg/mL
//
substance smiles: O=C(CCCCOc1ccc(F)cc1)NNc1nc2ccccc2o1
experimental endpoint: MIC
test value: > 512 µg/mL
//
substance smiles: O=C(CCCOc1cccc(C(F)(F)F)c1)NNc1nc2ccccc2o1
experimental endpoint: MIC
test value: > 512 µg/mL
//
substance smiles: Cc1ccc(OCC(=O)NNc2nc3ccccc3o2)cc1
experimental endpoint: MIC
test value: > 512 µg/mL
//
substance smiles: O=C(CCCCOc1ccc(Cl)cc1)NNc1nc2ccc(Cl)cc2o1
experimental endpoint: MIC
test value: > 512 µg/mL
//
substance smiles: Cc1cccc(C(=O)N/N=c2\sc3ccccc3n2C)c1
experimental endpoint: MIC
test value: > 512 µg/mL

FYI, the data here is from ChEMBL document CHEMBL5543127.
